- ASSAY_REMARKS: Cmax in Sprague-Dawley rat at 25 mg/kg, ip up to 24 hrs post dose by LC/MS/MS analysis
- Type: ADME, organism-based
- Parameters: dose 25 mg/kg, route intraperitoneal
- CONDITION_LABEL: in vivo
QUANTITY_NAME: Cmax

item_smiles=Cc1cc(NC(=O)Nc2ccc(-c3ccnc4[nH]nc(C)c34)cc2)ccc1N1CCOCC1 quantity_name=Cmax test_result="117 ng/mL"

====

- ASSAY_REMARKS: Tmax in Sprague-Dawley rat at 25 mg/kg, ip up to 24 hrs post dose by LC/MS/MS analysis
- Format: ADME, organism-based
- CONDITION_LABEL: in vivo
QUANTITY_NAME: Tmax (h)

item_smiles=Cc1cc(NC(=O)Nc2ccc(-c3ccnc4[nH]nc(C)c34)cc2)ccc1N1CCOCC1 test_result=4

====

- ASSAY_REMARKS: Half life in rat liver microsomes at 1 uM in presence of NADPH by LC-MS/MS
- Type: ADME, microsome
QUANTITY_NAME: half-life at 1 µM (min)

item_smiles=Cc1cc(NC(=O)Nc2ccc(-c3ccnc4[nH]nc(C)c34)cc2)ccc1N1CCOCC1 quantity_name="half-life at 1 µM" test_result=46.8

====

- ASSAY_REMARKS: AUC (0 to infinity) in Sprague-Dawley rat at 2 mg/kg, iv up to 24 hrs post dose by LC/MS/MS analysis
- Format: ADME, organism-based
- Design: dose 2 mg/kg, route intravenous, time infinity
- CONDITION_LABEL: in vivo
QUANTITY_NAME: AUC(0-inf) (ng·h/mL)

item_smiles=Cc1cc(NC(=O)Nc2ccc(-c3ccnc4[nH]nc(C)c34)cc2)ccc1N1CCOCC1 test_result=2250

====

- ASSAY_REMARKS: Tmax in Sprague-Dawley rat at 100 mg/kg, ip up to 24 hrs post dose by LC/MS/MS analysis
- Type: ADME, organism-based
- CONDITION_LABEL: in vivo
QUANTITY_NAME: Tmax

item_smiles=Cc1cc(NC(=O)Nc2ccc(-c3ccnc4[nH]nc(C)c34)cc2)ccc1N1CCOCC1 test_result="4 h"

====

Hi! I'm sharing some pIC50 results obtained with Fibroblast growth factor receptor 1 (Homo sapiens, UniProt P11362).
Sequence (P11362 whole entry): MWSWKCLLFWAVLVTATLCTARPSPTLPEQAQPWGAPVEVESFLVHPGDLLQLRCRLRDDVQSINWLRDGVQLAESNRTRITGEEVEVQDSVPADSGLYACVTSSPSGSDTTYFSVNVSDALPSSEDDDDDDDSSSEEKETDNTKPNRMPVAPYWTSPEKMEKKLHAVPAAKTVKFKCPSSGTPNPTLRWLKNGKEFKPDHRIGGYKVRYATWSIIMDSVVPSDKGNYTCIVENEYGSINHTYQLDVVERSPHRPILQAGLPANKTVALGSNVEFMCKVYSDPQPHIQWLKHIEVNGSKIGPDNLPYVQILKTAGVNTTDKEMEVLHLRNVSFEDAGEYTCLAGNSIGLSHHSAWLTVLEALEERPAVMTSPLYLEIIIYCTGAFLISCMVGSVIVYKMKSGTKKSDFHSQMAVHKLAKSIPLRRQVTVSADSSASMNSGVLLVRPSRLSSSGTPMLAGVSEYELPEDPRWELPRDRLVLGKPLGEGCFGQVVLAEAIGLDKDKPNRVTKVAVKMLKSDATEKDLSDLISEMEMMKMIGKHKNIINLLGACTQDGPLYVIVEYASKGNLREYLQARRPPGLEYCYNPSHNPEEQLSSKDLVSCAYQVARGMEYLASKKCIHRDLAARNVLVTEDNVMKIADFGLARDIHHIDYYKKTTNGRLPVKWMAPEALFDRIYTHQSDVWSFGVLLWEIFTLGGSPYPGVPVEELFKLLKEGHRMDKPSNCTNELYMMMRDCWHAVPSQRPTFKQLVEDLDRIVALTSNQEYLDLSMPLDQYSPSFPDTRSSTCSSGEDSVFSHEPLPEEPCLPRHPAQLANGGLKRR
pIC50: −log10 of the molar value.
QUANTITY_NAME: pIC50

molecule="Cc1ccc(F)c(NC(=O)Nc2ccc(C3CC(O)=Nc4[nH]nc(C)c43)cc2)c1 (stereo not given)" quantity_name=pIC50 relational_operator== test_result=4.47
molecule=Cc1ccc(F)c(NC(=O)Nc2ccc(-c3cc(O)nc4[nH]nc(C)c34)cc2)c1 quantity_name=pIC50 relational_operator== test_result=5.33
molecule=Cc1cccc(NC(=O)Nc2ccc(-c3cc(O)nc4[nH]nc(C)c34)cc2)c1 quantity_name=pIC50 relational_operator== test_result=5.65
molecule=Cc1ccc(F)c(NC(=O)Nc2ccc(-c3ccnc4[nH]nc(C)c34)cc2)c1 quantity_name=pIC50 relational_operator=< test_result=4.30
molecule=Cc1n[nH]c2nccc(-c3ccc(NC(=S)Nc4cccc(Br)c4)cc3)c12 quantity_name=pIC50 relational_operator== test_result=4.70

====

# Mast/stem cell growth factor receptor Kit (Homo sapiens, UniProt P10721): GI50 values follow
# Sequence (P10721 whole entry): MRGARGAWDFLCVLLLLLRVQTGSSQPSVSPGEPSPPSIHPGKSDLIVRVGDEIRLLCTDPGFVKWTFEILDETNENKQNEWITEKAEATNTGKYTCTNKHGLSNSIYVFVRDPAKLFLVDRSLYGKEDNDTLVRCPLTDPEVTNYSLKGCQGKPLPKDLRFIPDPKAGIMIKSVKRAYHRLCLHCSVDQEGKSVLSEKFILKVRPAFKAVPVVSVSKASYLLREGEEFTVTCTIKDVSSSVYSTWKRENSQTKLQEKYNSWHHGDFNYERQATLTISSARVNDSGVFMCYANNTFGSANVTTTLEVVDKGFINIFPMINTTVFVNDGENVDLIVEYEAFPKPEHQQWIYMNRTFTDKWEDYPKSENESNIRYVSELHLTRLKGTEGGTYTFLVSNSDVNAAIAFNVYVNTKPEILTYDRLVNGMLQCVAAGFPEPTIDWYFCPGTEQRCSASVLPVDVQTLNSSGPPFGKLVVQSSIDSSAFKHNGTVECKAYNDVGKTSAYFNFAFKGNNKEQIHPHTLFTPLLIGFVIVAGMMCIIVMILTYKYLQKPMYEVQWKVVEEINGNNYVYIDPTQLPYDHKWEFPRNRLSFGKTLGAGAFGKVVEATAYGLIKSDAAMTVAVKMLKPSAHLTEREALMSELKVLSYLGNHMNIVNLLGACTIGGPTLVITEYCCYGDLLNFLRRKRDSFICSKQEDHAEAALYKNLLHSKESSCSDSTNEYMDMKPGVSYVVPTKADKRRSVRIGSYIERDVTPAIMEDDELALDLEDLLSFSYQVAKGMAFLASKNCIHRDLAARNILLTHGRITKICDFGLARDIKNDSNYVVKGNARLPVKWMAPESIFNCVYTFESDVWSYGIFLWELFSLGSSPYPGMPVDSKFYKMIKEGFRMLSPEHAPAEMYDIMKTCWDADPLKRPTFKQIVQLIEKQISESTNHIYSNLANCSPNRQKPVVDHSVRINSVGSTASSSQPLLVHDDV
QUANTITY_NAME: GI50

molecule=Cc1n[nH]c2nccc(-c3ccc(NC(=O)NC4CCCC4)cc3)c12 test_result="> 10000 nM"
molecule=Cc1ccc(F)c(NC(=O)Nc2ccc(-c3cc(O)nc4[nH]nc(C)c34)cc2)c1 test_result="> 10000 nM"
molecule=Cc1n[nH]c2nccc(-c3ccc(NC(=O)Nc4cnc5ccccc5c4)cc3)c12 test_result="83.3 nM"
molecule="Cc1ccc(F)c(NC(=O)Nc2ccc(C3CC(O)=Nc4[nH]nc(C)c43)cc2)c1 (stereo unspecified)" test_result="> 10000 nM"
molecule=Cc1cc(NC(=O)Nc2ccc(-c3ccnc4[nH]nc(C)c34)cc2)ccc1N1CCOCC1 test_result="18.1 nM"
molecule=Cc1ccc(F)c(NC(=O)Nc2ccc(-c3cccc4[nH]nc(N)c34)cc2)c1 test_result="88.7 nM"
molecule=Cc1cccc(NC(=O)Nc2ccc(-c3ccnc4[nH]nc(C(F)(F)F)c34)cc2)c1 test_result="> 10000 nM"
molecule=Cc1cccc(NC(=O)Nc2ccc(-c3ccnc4[nH]nc(CO)c34)cc2)c1 test_result="1070 nM"
molecule=Cc1cccc(NC(=O)Nc2ccc(-c3ccnc4[nH]nc(C)c34)cc2)c1 test_result="248 nM"
molecule=CCCCCCNC(=O)Nc1ccc(-c2ccnc3[nH]nc(C)c23)cc1 test_result="3030 nM"
molecule=Cc1n[nH]c2nccc(-c3ccc(NC(=O)NCCCc4ccccc4)cc3)c12 test_result="3020 nM"

====

- ASSAY_REMARKS: MRT (0 to t) in Sprague-Dawley rat at 25 mg/kg, ip up to 24 hrs post dose by LC/MS/MS analysis
- Type: ADME, organism-based
- CONDITION_LABEL: in vivo
QUANTITY_NAME: MRT last at 24 h (h)

item_smiles=Cc1cc(NC(=O)Nc2ccc(-c3ccnc4[nH]nc(C)c34)cc2)ccc1N1CCOCC1 unit_symbol=h test_result=5.67

====

- TEST_TARGET: Platelet-derived growth factor receptor alpha (Homo sapiens, UniProt P16234)
- Sequence (P16234 whole entry): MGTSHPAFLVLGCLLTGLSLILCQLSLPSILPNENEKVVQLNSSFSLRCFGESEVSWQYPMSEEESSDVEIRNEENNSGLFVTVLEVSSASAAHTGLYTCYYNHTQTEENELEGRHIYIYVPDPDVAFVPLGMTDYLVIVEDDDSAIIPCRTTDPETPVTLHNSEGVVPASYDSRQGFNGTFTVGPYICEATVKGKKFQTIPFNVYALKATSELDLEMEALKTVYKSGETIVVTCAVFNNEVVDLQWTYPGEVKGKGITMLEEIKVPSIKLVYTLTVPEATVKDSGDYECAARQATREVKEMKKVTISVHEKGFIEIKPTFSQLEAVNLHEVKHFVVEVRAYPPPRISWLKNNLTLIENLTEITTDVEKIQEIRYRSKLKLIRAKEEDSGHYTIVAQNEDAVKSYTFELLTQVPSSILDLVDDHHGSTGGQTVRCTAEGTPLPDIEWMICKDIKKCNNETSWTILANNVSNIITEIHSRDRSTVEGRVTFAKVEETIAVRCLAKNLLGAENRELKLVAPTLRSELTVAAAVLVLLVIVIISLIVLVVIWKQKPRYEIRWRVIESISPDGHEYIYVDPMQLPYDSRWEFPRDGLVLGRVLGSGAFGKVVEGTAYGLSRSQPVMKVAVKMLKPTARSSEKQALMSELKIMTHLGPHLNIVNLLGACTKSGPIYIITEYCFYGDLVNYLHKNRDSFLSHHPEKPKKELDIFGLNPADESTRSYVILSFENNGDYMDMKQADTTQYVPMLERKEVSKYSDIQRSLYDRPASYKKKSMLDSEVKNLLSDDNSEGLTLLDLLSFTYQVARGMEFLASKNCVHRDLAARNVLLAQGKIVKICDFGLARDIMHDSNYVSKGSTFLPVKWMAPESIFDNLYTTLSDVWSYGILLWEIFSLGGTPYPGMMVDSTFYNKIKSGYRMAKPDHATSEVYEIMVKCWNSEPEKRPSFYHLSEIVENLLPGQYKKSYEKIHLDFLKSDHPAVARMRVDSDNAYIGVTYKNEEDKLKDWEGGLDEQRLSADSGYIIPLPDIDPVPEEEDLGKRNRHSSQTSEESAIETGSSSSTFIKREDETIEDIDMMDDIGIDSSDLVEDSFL
# Lookup of reported log10 GI50 keyed by entry
QUANTITY_NAME: log10 GI50 (log10 of the value in nM)

compound=Cc1cccc(NC(=O)Nc2ccc(-c3ccnc4[nH]nc(CO)c34)cc2)c1 test_result=1.02
compound=CCCCCCNC(=O)Nc1ccc(-c2ccnc3[nH]nc(C)c23)cc1 test_result=1.02
compound=Cc1cccc(NC(=O)Nc2ccc(-c3ccnc4[nH]nc(C(F)(F)F)c34)cc2)c1 test_result=2.67
compound=Cc1n[nH]c2nccc(-c3ccc(NC(=O)NCCCc4ccccc4)cc3)c12 test_result=1.02
compound="Cc1ccc(F)c(NC(=O)Nc2ccc(C3CC(O)=Nc4[nH]nc(C)c43)cc2)c1 (stereo unspecified)" test_result=3.63
compound=Cc1n[nH]c2nccc(-c3ccc(NC(=O)Nc4cnc5ccccc5c4)cc3)c12 test_result=1.02
compound=Cc1n[nH]c2nccc(-c3ccc(NC(=O)NC4CCCC4)cc3)c12 test_result=1.12
compound=Cc1cccc(NC(=O)Nc2ccc(-c3ccnc4[nH]nc(C)c34)cc2)c1 test_result=1.02
compound=Cc1cc(NC(=O)Nc2ccc(-c3ccnc4[nH]nc(C)c34)cc2)ccc1N1CCOCC1 test_result=1.02
compound=Cc1ccc(F)c(NC(=O)Nc2ccc(-c3cccc4[nH]nc(N)c34)cc2)c1 test_result=1.02
compound=Cc1ccc(F)c(NC(=O)Nc2ccc(-c3cc(O)nc4[nH]nc(C)c34)cc2)c1 test_result=2.31

====

- TEST_TARGET: Vascular endothelial growth factor receptor 1 (Homo sapiens, UniProt P17948)
- Sequence (P17948 whole entry, the tested form may be a part): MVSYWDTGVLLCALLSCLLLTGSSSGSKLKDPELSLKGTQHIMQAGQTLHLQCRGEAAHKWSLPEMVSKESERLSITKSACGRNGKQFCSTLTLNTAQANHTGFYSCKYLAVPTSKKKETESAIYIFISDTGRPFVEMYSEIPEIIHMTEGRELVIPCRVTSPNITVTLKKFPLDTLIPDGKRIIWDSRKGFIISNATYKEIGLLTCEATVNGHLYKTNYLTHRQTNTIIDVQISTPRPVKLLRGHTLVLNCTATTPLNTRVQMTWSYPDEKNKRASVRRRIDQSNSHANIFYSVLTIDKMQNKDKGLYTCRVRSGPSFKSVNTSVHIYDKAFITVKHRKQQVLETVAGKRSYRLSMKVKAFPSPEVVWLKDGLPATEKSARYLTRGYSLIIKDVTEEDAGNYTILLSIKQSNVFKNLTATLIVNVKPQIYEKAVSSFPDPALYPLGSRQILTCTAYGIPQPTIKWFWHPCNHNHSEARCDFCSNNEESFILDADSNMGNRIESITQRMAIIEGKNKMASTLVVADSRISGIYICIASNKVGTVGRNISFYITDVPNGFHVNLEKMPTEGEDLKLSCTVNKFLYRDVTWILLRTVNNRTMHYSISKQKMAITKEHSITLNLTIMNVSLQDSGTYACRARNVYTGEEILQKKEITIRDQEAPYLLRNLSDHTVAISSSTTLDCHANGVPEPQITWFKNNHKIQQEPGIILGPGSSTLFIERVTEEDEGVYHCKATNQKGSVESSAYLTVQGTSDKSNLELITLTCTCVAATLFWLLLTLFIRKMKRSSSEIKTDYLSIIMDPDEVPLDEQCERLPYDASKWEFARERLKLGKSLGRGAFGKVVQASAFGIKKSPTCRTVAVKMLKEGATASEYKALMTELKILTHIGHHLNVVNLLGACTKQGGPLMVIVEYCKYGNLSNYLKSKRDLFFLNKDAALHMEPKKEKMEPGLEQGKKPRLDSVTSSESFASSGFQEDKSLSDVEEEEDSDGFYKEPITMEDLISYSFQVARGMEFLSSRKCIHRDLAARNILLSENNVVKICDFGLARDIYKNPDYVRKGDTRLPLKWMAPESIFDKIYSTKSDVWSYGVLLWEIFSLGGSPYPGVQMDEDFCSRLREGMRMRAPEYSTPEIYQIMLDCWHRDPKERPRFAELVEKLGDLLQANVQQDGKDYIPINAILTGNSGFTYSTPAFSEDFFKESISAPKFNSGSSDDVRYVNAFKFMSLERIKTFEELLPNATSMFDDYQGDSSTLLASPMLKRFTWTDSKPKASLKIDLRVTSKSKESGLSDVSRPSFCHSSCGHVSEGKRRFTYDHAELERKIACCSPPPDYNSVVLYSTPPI
- ASSAY_REMARKS: Inhibition of human GST-tagged FLT1 (781 to 1338 residues) expressed in baculovirus by ELISA
pIC50: −log10 of the molar value.
QUANTITY_NAME: pIC50

item_smiles=Cc1cc(NC(=O)Nc2ccc(-c3ccnc4[nH]nc(C)c34)cc2)ccc1N1CCOCC1 test_target="Vascular endothelial growth factor receptor 1 (Homo sapiens, UniProt P17948)" test_result=6.80

====

- TEST_TARGET: UniProt P16234
Parameter: IC50. Scope: all listed entries.
QUANTITY_NAME: IC50 (nM)

compound=Cc1n[nH]c2nccc(-c3ccc(NC(=O)Nc4cccc(N5CCN(C)CC5)c4)cc3)c12 test_target="UniProt P16234" unit_symbol=nM relational_operator== test_result=215
compound=Cc1n[nH]c2nccc(-c3ccc(NC(=O)Nc4cccc(Br)c4)cc3)c12 test_target="UniProt P16234" unit_symbol=nM relational_operator== test_result=137
compound=Cc1n[nH]c2nccc(-c3ccc(NC(=O)NC4CC4)cc3)c12 test_target="UniProt P16234" unit_symbol=nM relational_operator== test_result=1130
compound=CCCCCCNC(=O)Nc1ccc(-c2ccnc3[nH]nc(C)c23)cc1 test_target="UniProt P16234" unit_symbol=nM relational_operator== test_result=27
compound=Cc1cc(NC(=O)Nc2ccc(-c3ccnc4[nH]nc(C)c34)cc2)ccc1N1CCOCC1 test_target="UniProt P16234" unit_symbol=nM relational_operator== test_result=7.2
compound=Cc1n[nH]c2nccc(-c3ccc(NC(=O)Nc4ccc(N(C)C)cc4)cc3)c12 test_target="UniProt P16234" unit_symbol=nM relational_operator== test_result=309
compound=Cc1n[nH]c2nccc(-c3ccc(NC(=O)Nc4cccc(C(F)(F)F)c4)cc3)c12 test_target="UniProt P16234" unit_symbol=nM relational_operator== test_result=106
compound=CCc1cccc(NC(=O)Nc2ccc(-c3ccnc4[nH]nc(C(F)(F)F)c34)cc2)c1 test_target="UniProt P16234" unit_symbol=nM relational_operator=> test_result=5000
compound=Cc1n[nH]c2nccc(-c3ccc(NC(=O)Nc4cccc(CN(C)C)c4)cc3)c12 test_target="UniProt P16234" unit_symbol=nM relational_operator== test_result=4610
compound=Cc1ccc(N2CCOCC2)c(NC(=O)Nc2ccc(-c3ccnc4[nH]nc(C)c34)cc2)c1 test_target="UniProt P16234" unit_symbol=nM relational_operator== test_result=18900
compound=Cc1n[nH]c2nccc(-c3ccc(NC(=O)NC4CCC4)cc3)c12 test_target="UniProt P16234" unit_symbol=nM relational_operator== test_result=732
compound=Cc1n[nH]c2nccc(-c3ccc(NC(=O)Nc4cccc5ccccc45)cc3)c12 test_target="UniProt P16234" unit_symbol=nM relational_operator== test_result=97
compound="Cc1ccc(F)c(NC(=O)Nc2ccc(C3CC(O)=Nc4[nH]nc(C)c43)cc2)c1 (stereo not given)" test_target="UniProt P16234" unit_symbol=nM relational_operator=> test_result=50000
compound=Cc1n[nH]c2nccc(-c3ccc(NC(=O)NC4CCCCC4)cc3)c12 test_target="UniProt P16234" unit_symbol=nM relational_operator=> test_result=50000
compound=Cc1cccc(NC(=O)Nc2ccc(-c3cc(O)nc4[nH]nc(C)c34)cc2)c1 test_target="UniProt P16234" unit_symbol=nM relational_operator== test_result=560
compound=CCN(CC)c1cccc(NC(=O)Nc2ccc(-c3ccnc4[nH]nc(C)c34)cc2)c1 test_target="UniProt P16234" unit_symbol=nM relational_operator== test_result=136
compound=Cc1ccccc1NC(=O)Nc1ccc(-c2ccnc3[nH]nc(C)c23)cc1 test_target="UniProt P16234" unit_symbol=nM relational_operator== test_result=305
compound=Cc1ccc(F)c(NC(=O)Nc2ccc(-c3cc(O)nc4[nH]nc(C)c34)cc2)c1 test_target="UniProt P16234" unit_symbol=nM relational_operator== test_result=1180
compound="Cc1ccc(F)c(NC(=O)Nc2ccc(-c3cccc4[nH]nc(N)c34)cc2)c1 [LINIFANIB]" test_target="UniProt P16234" unit_symbol=nM relational_operator== test_result=15
compound=CCNC(=O)Nc1ccc(-c2ccnc3[nH]nc(C)c23)cc1 test_target="UniProt P16234" unit_symbol=nM relational_operator=> test_result=50000
